- TEST_DESCRIPTION: Selectivity index, ratio of IC50 for African green Monkey BGM cells to IC50 for chloroquine-resistant Plasmodium falciparum W2
- Type: toxicity
- CONDITION_CONTEXT: read-out: Selectivity Index

[
  {
    "SMILES_STRING": "O=Cc1cn(-c2ccnc3cc(Cl)ccc23)nn1",
    "selectivity ratio": 351
  }
]

====

# reported pEC50; entries follow
- Test system: Plasmodium falciparum
- TEST_DESCRIPTION: Antiparasitic activity against Plasmodium falciparum 3D7
- Type: functional, organism-based
- CONDITION_CONTEXT: Plasmodium falciparum, 3D7
pEC50: −log10 of the molar value.

[
  {
    "SMILES_STRING": "COc1cc2[nH]c(C)c(-c3ccc(Oc4ccc(OC(F)(F)F)cc4)cc3)c(=O)c2cc1Cl",
    "pEC50": "7.87 to 8.89"
  },
  {
    "SMILES_STRING": "COc1cc2[nH]c(C)c(-c3ccc(Oc4ccc(OC(F)(F)F)cc4)cc3F)c(=O)c2cc1Cl",
    "pEC50": "7.49 to 8.50"
  }
]
